Data origin: ChEMBL document CHEMBL3046927

Each record here notes measured Activity.
- System: Hordeum vulgare
- procedure-details: Phytotoxicity against Hordeum vulgare (barley) plants assessed as crop damage at 125 g ai/ha measured after 3 weeks post compound treatment
- Assay type: organism-based
- recorded-conditions: in vivo, 504 h
Write the answer as a number in %, unit excluded.

A selection of reference data follows.
smi: C[C@@H](Oc1ccc(Oc2ncc(Cl)cc2F)cc1)c1nnc(SC(=O)c2ccccc2)o1
property-name: Activity
readout-units: %
measured-value: 0
//
smi: CSc1nnc([C@@H](C)Oc2ccc(Oc3ncc(Cl)cc3F)cc2)o1
property-name: Activity
readout-units: %
measured-value: 15
//
smi: CCOC(=O)Sc1nnc([C@@H](C)Oc2ccc(Oc3ncc(Cl)cc3F)cc2)o1
property-name: Activity
readout-units: %
measured-value: 0

From here, focus on the item given below.
Lookup: What value of measured Activity is listed for CCSc1nnc([C@@H](C)Oc2ccc(Oc3ncc(Cl)cc3F)cc2)o1 ?
Found: 15
